Where do the numbers come from? From patent US5663297A.

# tgt: fibrinogen receptor, glycoprotein IIb/IIIa (Homo sapiens, UniProt P05106+P08514)
# Sequence (P08514 32-887 limits assumed): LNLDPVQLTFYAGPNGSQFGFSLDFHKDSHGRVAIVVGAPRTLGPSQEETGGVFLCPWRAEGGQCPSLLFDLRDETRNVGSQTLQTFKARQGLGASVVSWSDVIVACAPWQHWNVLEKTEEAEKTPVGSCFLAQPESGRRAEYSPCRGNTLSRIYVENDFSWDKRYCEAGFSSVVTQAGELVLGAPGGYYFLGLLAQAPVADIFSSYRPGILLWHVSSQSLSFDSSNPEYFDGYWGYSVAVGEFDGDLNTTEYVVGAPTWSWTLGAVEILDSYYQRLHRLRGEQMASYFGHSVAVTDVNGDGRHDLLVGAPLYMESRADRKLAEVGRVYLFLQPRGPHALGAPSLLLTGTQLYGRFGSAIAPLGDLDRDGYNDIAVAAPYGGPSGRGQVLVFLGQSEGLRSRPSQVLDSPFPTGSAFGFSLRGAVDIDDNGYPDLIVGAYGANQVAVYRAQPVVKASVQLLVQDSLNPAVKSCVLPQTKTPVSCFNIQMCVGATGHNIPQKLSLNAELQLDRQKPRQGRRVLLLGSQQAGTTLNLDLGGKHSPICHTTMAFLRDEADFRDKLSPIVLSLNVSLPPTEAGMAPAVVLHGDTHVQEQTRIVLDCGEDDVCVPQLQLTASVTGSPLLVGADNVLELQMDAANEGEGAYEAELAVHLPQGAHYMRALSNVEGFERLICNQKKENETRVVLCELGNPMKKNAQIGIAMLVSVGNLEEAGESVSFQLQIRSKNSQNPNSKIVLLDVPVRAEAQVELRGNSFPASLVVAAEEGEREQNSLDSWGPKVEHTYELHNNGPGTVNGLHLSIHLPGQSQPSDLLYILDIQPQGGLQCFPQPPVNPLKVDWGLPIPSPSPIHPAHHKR
# Sequence (P08514 891-1039 partner limits assumed): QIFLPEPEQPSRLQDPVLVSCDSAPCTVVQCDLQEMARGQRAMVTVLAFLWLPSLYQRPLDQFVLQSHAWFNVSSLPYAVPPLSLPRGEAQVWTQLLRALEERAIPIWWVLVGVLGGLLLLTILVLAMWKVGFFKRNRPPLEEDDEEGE
# Sequence (P05106 27-788): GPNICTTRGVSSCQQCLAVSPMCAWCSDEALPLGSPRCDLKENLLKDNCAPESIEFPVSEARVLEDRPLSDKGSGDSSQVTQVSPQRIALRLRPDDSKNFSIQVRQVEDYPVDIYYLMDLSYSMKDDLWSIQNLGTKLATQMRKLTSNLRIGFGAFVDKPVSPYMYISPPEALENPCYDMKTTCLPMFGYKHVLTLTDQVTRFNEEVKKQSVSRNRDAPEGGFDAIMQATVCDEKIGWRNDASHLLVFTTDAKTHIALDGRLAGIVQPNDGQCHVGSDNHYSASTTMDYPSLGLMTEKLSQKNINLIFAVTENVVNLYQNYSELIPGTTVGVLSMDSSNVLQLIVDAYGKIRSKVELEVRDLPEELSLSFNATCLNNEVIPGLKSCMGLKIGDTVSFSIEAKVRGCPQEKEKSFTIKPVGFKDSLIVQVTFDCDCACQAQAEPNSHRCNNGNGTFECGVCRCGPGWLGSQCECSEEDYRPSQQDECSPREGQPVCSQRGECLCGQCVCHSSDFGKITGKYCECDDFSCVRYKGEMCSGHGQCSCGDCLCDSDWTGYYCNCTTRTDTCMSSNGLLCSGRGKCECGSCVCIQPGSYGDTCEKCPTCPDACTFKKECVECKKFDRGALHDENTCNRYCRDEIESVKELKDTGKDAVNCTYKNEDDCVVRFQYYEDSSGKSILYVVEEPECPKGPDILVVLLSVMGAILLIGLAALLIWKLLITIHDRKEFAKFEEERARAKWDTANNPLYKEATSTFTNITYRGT
# assay.overview: Inhibition of fibrinogen binding to immobilized glycoprotein IIb/IIIa (ELISA)
# condition.label: concentration required to inhibit binding of fibrinogen to the immobilized receptor from human blood platelets by 50%
*1 amine or outer side, *2 acyl side, *3 side chain or, on linkers, in order; H or OH if unused. Where a SMILES comes first, the peptide text is derived from it. [ ]: non-standard residue; d: D form. The star is where a group is joined. X1 = O=C(NCCN(CC(=O)[*:2])[*:1])OCc1ccccc1; Cbz = O=C(OCc1ccccc1)*
Overview of reported IC50 across a group of compounds:
observation.type: IC50 (nM)

compound	observation.type	unit.tag	result.value
CC(C)[C@H](NC(=O)[C@H](CC(=O)O)NC(=O)CNC(=O)[C@H](N)Cc1ccc(C(=N)N)cc1)C(=O)O [Example 20]	IC50	nM	22
[N-]=[N+]=Nc1ccccc1C(=O)N[C@@H](CCCNC(=N)N)C(=O)NCC(=O)N[C@@H](CC(=O)O)C(=O)Nc1ccccc1C(=O)O [Example 13]	IC50	nM	110
CC(C)[C@H](NC(=O)[C@H](CC(=O)O)NC(=O)CNC(=O)[C@H](CCCNC(=N)N)NC(=O)CN(CCNC(=O)OCc1ccccc1)C(=O)OCc1ccccc1)C(=O)O [Example 6, Z-Aeg(Z)-Arg-Gly-Asp-Val-OH] (Cbz-[X1]RGDV-OH)	IC50	nM	150
CC(C)[C@H](NC(=O)[C@H](CC(=O)O)NC(=O)CNC(=O)C(N)Cc1ccc(C(=N)N)cc1)C(=O)O (mixture of isomers) [Example 2]	IC50	nM	16
N=C(N)c1ccc(CC(N)C(=O)NCC(=O)N[C@@H](CC(=O)O)C(=O)N[C@@H](Cc2cccc3ccccc23)C(=O)O)cc1 (mixture of isomers) [Example 16]	IC50	nM	22

----------
# tgt: fibrinogen receptor, glycoprotein IIb/IIIa (Homo sapiens, UniProt P05106+P08514)
# assay.overview: Inhibition of fibrinogen binding to immobilized glycoprotein IIb/IIIa (ELISA)
# condition.label: concentration required to inhibit binding of fibrinogen to the immobilized receptor from human blood platelets by 50%
Where a SMILES comes first, the peptide text is derived from it. [ ]: non-standard residue; d: D form. 1Nal = N[C@@H](Cc1cccc2ccccc12)C(=O)O; Gly(N-2-aminoethyl) = NCCNCC(=O)O
Decision: IC50 beneath 40 nM gives condition met; IC50 meeting or exceeding 40 nM gives condition not met.

compound	tgt	label.class
CC(C)[C@H](NC(=O)[C@H](CC(=O)O)NC(=O)CNC(=O)[C@@H](N)Cc1ccc(C(=N)N)cc1)C(=O)O	fibrinogen receptor, glycoprotein IIb/IIIa (Homo sapiens, UniProt P05106+P08514)	condition met
CC(C)[C@H](NC(=O)[C@H](CC(=O)O)NC(=O)CNC(=O)COc1ccc(C(=N)N)cc1)C(=O)O	fibrinogen receptor, glycoprotein IIb/IIIa (Homo sapiens, UniProt P05106+P08514)	condition met
CC(C)[C@H](NC(=O)[C@H](CC(=O)O)NC(=O)CNC(=O)Cc1ccc(C(=N)N)cc1)C(=O)O	fibrinogen receptor, glycoprotein IIb/IIIa (Homo sapiens, UniProt P05106+P08514)	condition met
N=C(N)NCCC[C@H](NC(=O)CNCCN)C(=O)NCC(=O)N[C@@H](CC(=O)O)C(=O)N[C@@H](CO)C(=O)O	fibrinogen receptor, glycoprotein IIb/IIIa (Homo sapiens, UniProt P05106+P08514)	condition not met
CC(C)[C@H](NC(=O)[C@H](CC(=O)O)NC(=O)CNC(=O)[C@H](CCCNC(=N)N)NC(=O)CNCCN)C(=O)O [Example 7, Aeg-Arg-Gly-Asp-Val-OH] (H-[Gly(N-2-aminoethyl)]RGDV-OH)	fibrinogen receptor, glycoprotein IIb/IIIa (Homo sapiens, UniProt P05106+P08514)	condition not met
N=C(N)NCCC[C@H](NC(=O)CNCCN)C(=O)NCC(=O)N[C@@H](CC(=O)O)C(=O)N[C@@H](Cc1cccc2ccccc12)C(=O)O [Example 10, N-Aeg-Arg-Gly-Asp-Nal(1)-OH] (H-[Gly(N-2-aminoethyl)]RGD[1Nal]-OH)	fibrinogen receptor, glycoprotein IIb/IIIa (Homo sapiens, UniProt P05106+P08514)	condition met
CC(C)[C@H](NC(=O)[C@H](CC(=O)O)NC(=O)CNC(=O)C(Cc1ccc(C(=N)N)cc1)NC(=O)OC(C)(C)C)C(=O)O (mixture of isomers)	fibrinogen receptor, glycoprotein IIb/IIIa (Homo sapiens, UniProt P05106+P08514)	condition met
CC(=N)NCCCC[C@H](NC(=O)OC(C)(C)C)C(=O)NCC(=O)N[C@@H](CC(=O)O)C(=O)N[C@H](C(=O)O)C(C)C	fibrinogen receptor, glycoprotein IIb/IIIa (Homo sapiens, UniProt P05106+P08514)	condition not met
